Cited source: PubChem BioAssay

Reported values of inhibition for individual entries
test_system: L-lactate dehydrogenase (Plasmodium falciparum (isolate CDC / Honduras)) (UniProt Q27743)
Sequence (Q27743 whole entry, looked up): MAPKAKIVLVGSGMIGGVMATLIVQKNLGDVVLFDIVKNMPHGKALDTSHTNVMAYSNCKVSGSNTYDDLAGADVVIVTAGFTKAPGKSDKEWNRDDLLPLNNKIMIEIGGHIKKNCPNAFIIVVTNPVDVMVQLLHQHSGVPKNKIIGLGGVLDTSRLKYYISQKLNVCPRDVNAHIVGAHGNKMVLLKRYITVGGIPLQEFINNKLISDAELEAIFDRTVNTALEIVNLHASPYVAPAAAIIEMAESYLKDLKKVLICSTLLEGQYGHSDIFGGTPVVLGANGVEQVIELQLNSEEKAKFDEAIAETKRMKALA
protocol_details: PfLDH activity inhibition – cell lysate, 3D7 strain, counter-screen for P. falciparum growth inhibition project (AID 2304);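 note: 0% = vehicle and 100% = reference inhibitor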
experimental_setup: P. falciparum 3D7 crude extract, LDH APAD/NBT absorbance; at 2 µM; stronger effect = higher value
property: inhibition (%)

# molecule, test_system, property, recorded_value
measured = [
    ("CCN(CC)CCN(Cc1ccc(-c2ccc(C(F)(F)F)cc2)cc1)C(=O)c1ccc(-c2ccc(C#N)cc2)cc1", "L-lactate dehydrogenase (Plasmodium falciparum (isolate CDC / Honduras)) (UniProt Q27743)", "inhibition", -5),
    ("CC(C)(CNCc1ccccc1)c1nc(-c2ccc(Cl)c(O)c2)c(-c2ccncc2)[nH]1", "L-lactate dehydrogenase (Plasmodium falciparum (isolate CDC / Honduras)) (UniProt Q27743)", "inhibition", -2),
    ("COc1cccc2c(O)c(CNC3CCCCC3)ccc12", "L-lactate dehydrogenase (Plasmodium falciparum (isolate CDC / Honduras)) (UniProt Q27743)", "inhibition", 3),
    ("CC(=O)Nc1ccc(CN2CCc3ccc(NS(=O)(=O)c4ccc(-c5cccc(C(F)(F)F)c5)cc4)cc3CC2)s1", "L-lactate dehydrogenase (Plasmodium falciparum (isolate CDC / Honduras)) (UniProt Q27743)", "inhibition", 0),
    ("Cn1c(NC(=O)C2CCC(CNC(=O)c3ccc(O)c(-c4cccc([N+](=O)[O-])c4)c3)CC2)nc2ccccc21 (configuration not stated)", "L-lactate dehydrogenase (Plasmodium falciparum (isolate CDC / Honduras)) (UniProt Q27743)", "inhibition", -5),
    ("O=C(Nc1cccc(OC2CCN(Cc3ccccc3)CC2)c1)c1ccc(Cl)c(Cl)c1", "L-lactate dehydrogenase (Plasmodium falciparum (isolate CDC / Honduras)) (UniProt Q27743)", "inhibition", -4),
    ("O=C(NCCCCN1CCC(c2ccc3c(c2OCCOCCO)CCCC3)CC1)c1ccc(-c2ccc(C(F)(F)F)cc2)cc1", "L-lactate dehydrogenase (Plasmodium falciparum (isolate CDC / Honduras)) (UniProt Q27743)", "inhibition", -5),
]

---

protocol_details: liver-stage malaria parasite growth inhibition, primary screen, cell-based, HepG2, luciferase luminescence, HepG2 viability (AID 624349);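 note: 100% = mean of DMSO negative control wells on the same plate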
experimental_setup: P. berghei liver stage in HepG2, luciferase luminescence, concentration not given here; measured here: HepG2 viability without parasites
Rule: viability below 90% gives y. Equal to or above 90% gives n.

# compound, discrete_label
rows = [
    ("O=[N+]([O-])O[C@@H]1CO[C@H]2[C@@H]1OC[C@@H]2O", "n"),
    ("O=C(O)C1CCCNC1 (stereo unspecified)", "n"),
    ("CN(C)CCCSC(=N)N", "y"),
    ("CC1CC2C3CCC4=CC(=O)C=CC4(C)C3(F)C(O)CC2(C)C1(O)C(=O)CO (stereo unspecified)", "n"),
    ("O=C(CNC(=O)c1ccc(Cl)cc1)NO", "n"),
    ("CCCCC(=O)O[C@]1(C(=O)CO)CCC2C3CCC4=CC(=O)CC[C@]4(C)C3[C@@H](O)C[C@@]21C (stereo partly specified)", "n"),
    ("CCCCN1CCCC1CNC(=O)c1cc(C#N)c2ccccc2c1OC (stereo unspecified)", "y"),
    ("CC[C@@H](C(=O)[C@@H](C)[C@@H](O)[C@H](C)[C@@H]1O[C@@H]([C@@H](CC)C(=O)O)CC[C@@H]1C)[C@H]1OC2(C=C[C@@H](O)[C@]3(CC[C@@](C)([C@H]4CC[C@](O)(CC)[C@H](C)O4)O3)O2)[C@H](C)C[C@@H]1C (stereo partly specified)", "y"),
    ("CC[C@H](NC(C)C)[C@H](O)c1ccc(O)c2[nH]c(=O)ccc12", "n"),
    ("CCCCC(=O)O[C@]1(C(=O)CO)[C@@H](C)CC2C3CCC4=CC(=O)C=C[C@]4(C)[C@@]3(F)C(O)C[C@@]21C (stereo partly specified)", "y"),
    ("C[C@]12C=CC(=O)C=C1CC[C@@H]1[C@@H]2[C@@H](O)C[C@@]2(C)[C@H]1CC[C@]2(O)C(=O)COC(=O)CCC(=O)O", "y"),
]
